targetUnderTest: MGAT2 (microsomal fraction of human small intestine) (Homo sapiens (Human))
protocolText: Test Example 2: Test of MGAT2 inhibitory action (microsomal fraction of human small intestine, 3H-labeled 2-monooleoyl glycerol)
Type: biochemical
assayConditions: microsomal fraction of human small intestine 5 μg/ml; 4 μM oleoyl-CoA, 1.25 μM 2-monooleoyl glycerol, 0.125 μM 3H-labeled 2-monooleoyl glycerol; room temperature 30 min; read-out: Activity Value [nM] (IC50, concentration at which 50% of the products 3H-labeled dioleoyl glycerol and trioleoyl glycerol was inhibited)
quantityMeasured: IC50

CC(C)(C)n1cc(CCN2CCc3cc(S(=O)(=O)Nc4ccc(CCCC5CCCC5)cc4F)ccc3C2)cn1 ... 140 nM
CC(C)(C)c1ccc(CCN2CCc3cc(S(=O)(=O)Nc4ccc(OCC[C@H]5CCOC[C@H]5F)cc4F)ccc3C2)cc1 ... 169 nM
CC(c1cnc(C(F)(F)F)nc1)N1CCc2cc(S(=O)(=O)Nc3ccc(CCCC4CCCC4)cc3F)ccc2C1 (single isomer, unassigned) [24-10] ... 100 nM
CC(C)n1cc(CN2CCc3cc(S(=O)(=O)Nc4ccc(CCCC5CCCC5)cc4F)ccc3C2)cn1 ... 180 nM
CC(C)(C)c1ccc(CCN2CCc3cc(S(=O)(=O)Nc4ccc(OCCOC5CCCCC5)cc4F)ccc3C2)cc1 ... 137 nM
CC(c1ccc(OCC(F)(F)F)nc1)N1CCc2cc(S(=O)(=O)Nc3ccc(CCCC4CCCC4)cc3F)ccc2C1 (stereo not shown) ... 115 nM
Cc1nn(C)c(C)c1CN1CCc2cc(S(=O)(=O)Nc3ccc(CCCC4CCCC4)cc3F)ccc2C1 ... 189 nM

====

targetUnderTest: human MGAT2 (Homo sapiens (Human))
Sequence (Q3SYC2 whole entry): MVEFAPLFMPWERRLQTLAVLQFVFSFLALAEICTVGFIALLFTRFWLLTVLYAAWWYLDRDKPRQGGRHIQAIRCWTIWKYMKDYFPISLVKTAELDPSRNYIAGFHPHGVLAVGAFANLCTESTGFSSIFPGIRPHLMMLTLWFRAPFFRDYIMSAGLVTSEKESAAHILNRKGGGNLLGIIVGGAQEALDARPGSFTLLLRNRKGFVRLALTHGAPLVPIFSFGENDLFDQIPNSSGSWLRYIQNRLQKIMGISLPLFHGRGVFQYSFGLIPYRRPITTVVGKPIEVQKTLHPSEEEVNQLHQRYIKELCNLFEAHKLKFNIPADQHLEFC
protocolText: Test Example 1: Test of MGAT2 inhibitory action (human MGAT2 enzyme fraction from Sf9 cells, free CoA detected by CPM fluorescence)
Assay type: biochemical
assayConditions: human MGAT2 enzyme fraction expressed in Sf9 insect cells, 0.5 μg/ml, 2-monooleoyl glycerol 0.78 μM, oleoyl-CoA 5.3 μM, room temperature 20 min, listed as 10-3, read-out: Activity Value [nM] (IC50, concentration at which 50% of produced free CoA was inhibited)
quantityMeasured: IC50 (nM)

CCCCCCOc1ccc(NS(=O)(=O)c2ccc3c(c2)CCN(C(C)Cc2ccc(C(C)(C)C)cc2)C3)c(F)c1 (single isomer, unassigned) ... 26

====

Measured IC50, listed per entry for reference.
targetUnderTest: MGAT2 (microsomal fraction of human small intestine) (Homo sapiens (Human), UniProt Q3SYC2)
Sequence (Q3SYC2 whole entry): as above
protocolText: Test Example 2: Test of MGAT2 inhibitory action (microsomal fraction of human small intestine, 3H-labeled 2-monooleoyl glycerol)
Format: biochemical
assayConditions: microsomal fraction of human small intestine 5 μg/ml; 4 μM oleoyl-CoA, 1.25 μM 2-monooleoyl glycerol, 0.125 μM 3H-labeled 2-monooleoyl glycerol; room temperature 30 min; read-out: Activity Value [nM] (IC50, concentration at which 50% of the products 3H-labeled dioleoyl glycerol and trioleoyl glycerol was inhibited)
quantityMeasured: IC50 (nM)

CC(c1cnc(C(F)(F)F)nc1)N1CCc2cc(S(=O)(=O)Nc3ccc(CCCC4CCCC4)cc3F)ccc2C1 (single isomer, unassigned) [24-9] ... 131
CC(C)(C)c1ccc(CCN2CCc3cc(S(=O)(=O)Nc4ccc(OCCCOC5CCCC5)cc4F)ccc3C2)cc1 ... 68
C[C@@H](c1ccc(C(C)(C)C)nc1)N1CCc2cc(S(=O)(=O)Nc3ccc(CCCC4CCCC4)cc3F)ccc2C1 ... 29
CC(C)(C)c1ncc(CCN2CCc3cc(S(=O)(=O)Nc4ccc(CCCC5CCCC5)cc4F)ccc3C2)s1 ... 248
O=S(=O)(Nc1ccc(CCCC2CCCC2)cc1F)c1ccc2c(c1)CCN(Cc1cnn(C3CCC3)c1)C2 ... 142
CC(C)(C)c1ccc(CCN2CCc3cc(S(=O)(=O)Nc4ccc(OCCCS(=O)(=O)c5ccccc5)cc4F)ccc3C2)cc1 ... 35

====

targetUnderTest: UniProt Q3SYC2
protocolText: Test Example 2: Test of MGAT2 inhibitory action (microsomal fraction of human small intestine, 3H-labeled 2-monooleoyl glycerol)
Format: biochemical
assayConditions: microsomal fraction of human small intestine 5 μg/ml; 4 μM oleoyl-CoA, 1.25 μM 2-monooleoyl glycerol, 0.125 μM 3H-labeled 2-monooleoyl glycerol; room temperature 30 min; read-out: Activity Value [nM] (IC50, concentration at which 50% of the products 3H-labeled dioleoyl glycerol and trioleoyl glycerol was inhibited)
Measured IC50 accompanies every entry in the list below.
quantityMeasured: IC50 (nM)

CC(C)(C)n1cc(CN2CCc3cc(S(=O)(=O)Nc4ccc(OCCC5CCOCC5)cc4F)ccc3C2)cn1 ... 198
O=S(=O)(Nc1ccc(CCCC2CCCC2)cc1F)c1ccc2c(c1)CCN(Cc1cnc(-c3ccc(Cl)cc3)s1)C2 ... 105
CC(C)(C)c1ccc(C2(N3CCc4cc(S(=O)(=O)Nc5ccc(CCCC6CCCC6)cc5F)ccc4C3)CC2)cn1 ... 60
Cc1cc(CN2CCc3cc(S(=O)(=O)Nc4ccc(CCCC5CCCC5)cc4F)ccc3C2)c(C)n1-c1cccc(C(F)(F)F)c1 ... 45

====

Listing of recorded IC50 by entry.
targetUnderTest: MGAT2 (microsomal fraction of human small intestine) (Homo sapiens (Human), UniProt Q3SYC2)
protocolText: Test Example 2: Test of MGAT2 inhibitory action (microsomal fraction of human small intestine, 3H-labeled 2-monooleoyl glycerol)
Format: biochemical
assayConditions: microsomal fraction of human small intestine 5 μg/ml; 4 μM oleoyl-CoA, 1.25 μM 2-monooleoyl glycerol, 0.125 μM 3H-labeled 2-monooleoyl glycerol; room temperature 30 min; read-out: Activity Value [nM] (IC50, concentration at which 50% of the products 3H-labeled dioleoyl glycerol and trioleoyl glycerol was inhibited)
quantityMeasured: IC50 (nM)

Cc1nn(-c2ccccc2)c(C)c1CN1CCc2cc(S(=O)(=O)Nc3ccc(CCCC4CCCC4)cc3F)ccc2C1 [Working Example 7-71] ... 57
CC(C)(C)c1ccc(CCN2CCc3cc(S(=O)(=O)Nc4ccc(OCC[C@H]5CCOC[C@@H]5F)cc4F)ccc3C2)cc1 [Working Example 8-15] ... 204
Cc1cc(CN2CCc3cc(S(=O)(=O)Nc4ccc(CCCC5CCCC5)cc4F)ccc3C2)c(C)n1-c1ccncc1 [Working Example 7-88] ... 145

====

targetUnderTest: MGAT2 (microsomal fraction of human small intestine) (Homo sapiens (Human), UniProt Q3SYC2)
protocolText: Test Example 2: Test of MGAT2 inhibitory action (microsomal fraction of human small intestine, 3H-labeled 2-monooleoyl glycerol)
Type: biochemical
assayConditions: microsomal fraction of human small intestine 5 μg/ml; 4 μM oleoyl-CoA, 1.25 μM 2-monooleoyl glycerol, 0.125 μM 3H-labeled 2-monooleoyl glycerol; room temperature 30 min; read-out: Activity Value [nM] (IC50, concentration at which 50% of the products 3H-labeled dioleoyl glycerol and trioleoyl glycerol was inhibited)
Threshold check on IC50: strictly below 200 nM is Y; on or above 200 nM is N.

CCCn1cc(CN2CCc3cc(S(=O)(=O)Nc4ccc(CCCC5CCCC5)cc4F)ccc3C2)cn1 ... N
CC(C)(C)n1cc(CN2CCc3cc(S(=O)(=O)Nc4ccc(CCCC5CCCC5)cc4F)ccc3C2)cn1 ... Y
O=S(=O)(Nc1ccc(CCCC2CCCC2)cc1F)c1ccc2c(c1)CCN(Cc1ccc(OCC(F)(F)F)nc1)C2 ... N
CC(C)Cn1cc(CN2CCc3cc(S(=O)(=O)Nc4ccc(CCCC5CCCC5)cc4F)ccc3C2)cn1 ... Y
CC(C)(C)c1ccc(CCN2CCc3cc(S(=O)(=O)Nc4ccc(OCCC5CCOC5)cc4F)ccc3C2)cc1 (stereo not shown) ... Y
CCn1cc(CN2CCc3cc(S(=O)(=O)Nc4ccc(CCCC5CCCC5)cc4F)ccc3C2)cn1 ... Y
CC(C)(C)c1cc(CN2CCc3cc(S(=O)(=O)Nc4ccc(OCCC5CCOCC5)cc4F)ccc3C2)ccn1 ... N

====

Some compounds, each annotated with its measured IC50.
targetUnderTest: MGAT2 (microsomal fraction of human small intestine) (Homo sapiens (Human), UniProt Q3SYC2)
protocolText: Test Example 2: Test of MGAT2 inhibitory action (microsomal fraction of human small intestine, 3H-labeled 2-monooleoyl glycerol)
Format: biochemical
assayConditions: microsomal fraction of human small intestine 5 μg/ml; 4 μM oleoyl-CoA, 1.25 μM 2-monooleoyl glycerol, 0.125 μM 3H-labeled 2-monooleoyl glycerol; room temperature 30 min; read-out: Activity Value [nM] (IC50, concentration at which 50% of the products 3H-labeled dioleoyl glycerol and trioleoyl glycerol was inhibited)
quantityMeasured: IC50 (nM)

Cc1nc(-c2ccccc2)sc1CN1CCc2cc(S(=O)(=O)Nc3ccc(CCCC4CCCC4)cc3F)ccc2C1 ... 118
CC(C)(C)c1ccc(CCN2CCc3cc(S(=O)(=O)Nc4ccc(OCCC5CCCC5)cc4F)ccc3C2)cc1 ... 29
C[C@H](c1ccc(C(C)(C)C)nc1)N1CCc2cc(S(=O)(=O)Nc3ccc(CCCC4CCCC4)cc3F)ccc2C1 ... 4
CC(C)(C)c1ccc(CC(C)(C)N2CCc3cc(S(=O)(=O)Nc4ccc(CCCC5CCCC5)cc4F)ccc3C2)cc1 ... 14
